# measurementTarget: Keap1/Nrf2 (Homo sapiens)
# Sequence (Q16236 whole entry): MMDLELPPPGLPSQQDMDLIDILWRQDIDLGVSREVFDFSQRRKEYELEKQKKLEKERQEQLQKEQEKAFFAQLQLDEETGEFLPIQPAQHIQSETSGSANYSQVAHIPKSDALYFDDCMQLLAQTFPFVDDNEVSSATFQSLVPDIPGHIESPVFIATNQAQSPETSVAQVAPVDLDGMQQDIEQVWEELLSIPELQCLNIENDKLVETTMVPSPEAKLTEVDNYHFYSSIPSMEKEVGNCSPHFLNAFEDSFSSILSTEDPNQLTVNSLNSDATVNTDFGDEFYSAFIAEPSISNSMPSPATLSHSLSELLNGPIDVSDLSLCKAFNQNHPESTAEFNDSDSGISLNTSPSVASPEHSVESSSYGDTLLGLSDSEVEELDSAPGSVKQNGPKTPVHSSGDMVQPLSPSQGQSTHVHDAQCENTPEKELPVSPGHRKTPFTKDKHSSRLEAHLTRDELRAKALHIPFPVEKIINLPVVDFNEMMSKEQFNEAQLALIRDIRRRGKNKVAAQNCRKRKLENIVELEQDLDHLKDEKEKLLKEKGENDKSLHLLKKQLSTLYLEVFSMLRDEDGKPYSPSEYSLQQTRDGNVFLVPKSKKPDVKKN
# Sequence (Q14145 whole entry): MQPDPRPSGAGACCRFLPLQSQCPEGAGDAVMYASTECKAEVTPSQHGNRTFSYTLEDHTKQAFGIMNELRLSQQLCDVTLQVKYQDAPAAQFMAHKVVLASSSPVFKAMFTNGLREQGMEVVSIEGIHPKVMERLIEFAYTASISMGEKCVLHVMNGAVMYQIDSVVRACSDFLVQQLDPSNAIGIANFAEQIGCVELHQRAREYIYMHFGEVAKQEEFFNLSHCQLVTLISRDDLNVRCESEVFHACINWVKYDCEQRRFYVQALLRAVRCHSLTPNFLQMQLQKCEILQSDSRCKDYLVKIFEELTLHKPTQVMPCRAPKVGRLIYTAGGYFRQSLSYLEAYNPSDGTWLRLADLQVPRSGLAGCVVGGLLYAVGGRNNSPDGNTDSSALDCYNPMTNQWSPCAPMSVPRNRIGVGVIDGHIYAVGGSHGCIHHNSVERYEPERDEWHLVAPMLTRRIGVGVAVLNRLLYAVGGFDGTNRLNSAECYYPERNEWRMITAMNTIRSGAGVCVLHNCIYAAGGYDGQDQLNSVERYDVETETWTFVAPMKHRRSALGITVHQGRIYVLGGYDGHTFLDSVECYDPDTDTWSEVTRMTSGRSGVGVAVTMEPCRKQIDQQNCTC
readout: IC50 (nM)
Supply the numeric figure in nM, leaving out any unit text.

{"compound": "C[C@H](Oc1cccc(-c2cccc(-n3ncc(C(=O)O)c3[C@@H]3C[C@H]3c3cn(C)nn3)c2)c1)C1CCCCC1", "valueObserved": 10}
{"compound": "CCCCC1CCCN1C(=O)c1cccc(-c2cccc(-n3ncc(C(=O)O)c3C3CC3)c2)c1 (centres undefined)", "valueObserved": 63}
{"compound": "O=C(O)c1ccc(NC2=C/C(=N/S(=O)(=O)c3ccc4ccccc4c3)c3ccccc3C2=O)cc1", "valueObserved": 2700}

Proceed to the following item.
Prompt: Query the reported IC50 for Keap1/Nrf2 (Homo sapiens); item: COc1ccc(S(=O)(=O)N(Cc2nnn[nH]2)c2ccc(N(Cc3nnn[nH]3)S(=O)(=O)c3ccc(OC)cc3)c3ccccc23)cc1
Response: 14.4
